Catalogue of IC50 values
target: human LPA1 (Homo sapiens, UniProt Q92633); construct: the full-length cDNA for human LPA1 was obtained by PCR of the reverse transcription reaction; assay: LPA1 calcium flux assay; conditions: human LPA1 expressing CHO cells, stimulated with 10 nM LPA; read-out: HLPA1 Ca Flux IC50
Sequence (Q92633 whole entry): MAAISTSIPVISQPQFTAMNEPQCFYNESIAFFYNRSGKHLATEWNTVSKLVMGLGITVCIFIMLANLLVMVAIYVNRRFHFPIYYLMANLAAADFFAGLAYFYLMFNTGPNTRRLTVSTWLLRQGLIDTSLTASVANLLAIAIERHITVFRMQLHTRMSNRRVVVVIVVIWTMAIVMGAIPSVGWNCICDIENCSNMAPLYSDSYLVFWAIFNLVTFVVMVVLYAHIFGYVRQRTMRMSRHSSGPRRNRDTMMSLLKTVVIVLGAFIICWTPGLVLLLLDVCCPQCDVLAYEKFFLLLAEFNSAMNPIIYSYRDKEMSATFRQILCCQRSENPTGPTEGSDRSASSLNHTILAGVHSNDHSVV

[
  {
    "molecule": "Cc1noc(-c2ccc(-c3ccc(C4(C(=O)NS(C)(=O)=O)CC4)cc3)cc2)c1C(O)c1cn(Cc2ccccc2)nn1 (single isomer, unassigned)",
    "IC50": "< 300 nM"
  },
  {
    "molecule": "Cc1noc(-c2ccc(-c3ccc(C4(CC(=O)O)CC4)cc3)cc2)c1NC(C)c1cc(-c2ccccc2)no1 (single isomer, unassigned) [Compound 1-43]",
    "IC50": "< 300 nM"
  }
]

Read the next record carefully.
Name the recorded IC50 for `Cc1noc(-c2ccc(-c3ccc(C4(C(=O)O)CC4)cc3)cc2)c1Nc1cncc(-c2cccc(F)c2Cl)c1` . < 300 nM

====

target: human LPA1 (Homo sapiens, UniProt Q92633); construct: the full-length cDNA for human LPA1 was obtained by PCR of the reverse transcription reaction; experiment: LPA1 calcium flux assay; conditions: human LPA1 expressing CHO cells, stimulated with 10 nM LPA; read-out: HLPA1 Ca Flux IC50
pIC50: −log10 of the molar value.
Catalogue of pIC50 values

These solved cases illustrate the format of a correct answer.
[
  {
    "compound": "Cc1noc(-c2ccc(-c3ccc(C4(C(=O)O)CC4)cc3)cc2)c1C1CC1C(=O)N(C)[C@H](C)c1ccccc1 (single isomer, unassigned) [Compound 1-27]",
    "pIC50": "6.00 to 6.52"
  },
  {
    "compound": "Cc1noc(-c2ccc(-c3ccc(C4(C(=O)O)CC4)cc3)cc2)c1[C@@H](O)c1cn(Cc2ccccc2Cl)nn1",
    "pIC50": "> 6.52"
  },
  {
    "compound": "Cc1noc(-c2ccc(-c3ccc(C4(C(=O)O)CC4)cc3)cc2)c1Nc1cccc(-c2cccc(C(F)(F)F)c2Cl)n1",
    "pIC50": "> 6.52"
  },
  {
    "compound": "Cc1noc(-c2ccc(-c3ccc(C4(C(=O)O)CC4)cc3)cc2)c1Nc1cccc(Cc2cccc(F)c2)n1",
    "pIC50": "> 6.52"
  },
  {
    "compound": "Cc1noc(-c2ccc(-c3ccc(C4(C(=O)O)CC4)cc3)cc2)c1Nc1cccc(Oc2ccccc2)c1",
    "pIC50": "> 6.52"
  }
]

Read the next record carefully.
Enter reported pIC50 observed with human LPA1 (Homo sapiens, UniProt Q92633) for `Cc1noc(-c2ccc(-c3ccc(C4(C(=O)O)CC4)cc3)cc2)c1Nc1cccc(-c2ccccc2CN(C)C)c1` > 6.52

====

biological target: human LPA1 (Homo sapiens); construct: the full-length cDNA for human LPA1 was obtained by PCR of the reverse transcription reaction; expressed in transfected cells; experiment: LPA1 calcium flux assay; format: cell-based; details: human LPA1 expressing CHO cells, stimulated with 10 nM LPA; read-out: HLPA1 Ca Flux IC50
Catalogue of IC50 values

These solved cases illustrate the format of a correct answer.
[
  {
    "compound": "Cc1noc(-c2ccc(-c3ccc(C4(C(=O)NS(C)(=O)=O)CC4)cc3)cc2)c1C(O)c1nnc(Cc2ccccc2)o1 (single isomer, unassigned)",
    "IC50": "< 0.3 µM"
  },
  {
    "compound": "Cc1noc(-c2ccc(-c3ccc(C4(C(=O)O)CC4)cc3)cc2)c1C(O)c1cn(Cc2ccc(Cl)c(Cl)c2)nn1 (centres unmarked)",
    "IC50": "< 0.3 µM"
  },
  {
    "compound": "Cc1noc(-c2ccc(-c3ccc(C4(C(=O)O)CC4)cc3)cc2)c1Nc1cccc(Cc2ccccc2F)n1",
    "IC50": "< 0.3 µM"
  },
  {
    "compound": "Cc1noc(-c2ccc(-c3ccc(C4(C(=O)O)CC4)cc3)cc2)c1NC1CCN(Cc2ccccc2)CC1",
    "IC50": "1 to 50 µM"
  },
  {
    "compound": "Cc1noc(-c2ccc(-c3ccc(C4(C(=O)O)CC4)cc3)cc2)c1NC(C)[C@@H]1C[C@H]1c1ccccc1 (relative stereo)",
    "IC50": "< 0.3 µM"
  }
]

Read the next record carefully.
Name the recorded IC50 for Cc1noc(-c2ccc(-c3ccc(C4(CC(=O)O)CC4)cc3)cc2)c1C(O)CCCc1ccc(Oc2ccccc2)cc1 (centres unmarked) . 1 to 50 µM
